- target of assay: 5-hydroxytryptamine receptor 7 (Rattus norvegicus)
- test name: Modulation of rat 5HT7 receptor by cAMP assay
- Type: functional
endpoint name: pKb

- input smiles: "Cc1nc(COc2ccc(Cl)cc2OC2CNC2)cs1"
  recorded value: 6.9
- input smiles: "FC(F)(COc1ccc(Cl)cc1OC1CNC1)c1ccccc1"
  recorded value: 7.3
- input smiles: "C[C@@H](Oc1ccc(C(F)(F)F)cc1OC1CNC1)c1cccc(C(F)(F)F)c1"
  recorded value: 6.8
- input smiles: "Clc1cccc(COc2ccc(Br)cc2OC2CNC2)c1"
  recorded value: 7.5
